// reported growth for each item listed
- System: MDA-MB-435 melanoma
- runDescription: NCI-60 one-dose screen, 48 h (100 = growth as untreated, 0 = no growth, -100 = all killed)
- conditionDescription: 10 µM unless noted
This is part of a sample that, as a whole, favours compounds with a hit. Of some 83,000 tested, about 20% had one in any assay. Calls of active or inactive are those of the source. The calls were made as follows: active = growth percent below 10; inactive = the rest.
readoutType: growth

CN(C)S(=O)(=O)c1cccc(C(=O)Nc2nc(-c3ccc(F)c(F)c3)cs2)c1
83.3% (inactive)
Cc1cc(N2CCN(CCNc3ccnc4cc(Cl)ccc34)CC2)nc(N2CCOCC2)n1
80.1% (inactive)
Cc1nc2sc(C(=O)Nc3cccc4ccccc34)c(N)c2cc1C(O)c1ccccc1 (stereo unspecified)
0.328% (active)
COc1ccc(-c2ccc(=O)oc2-c2cc(OC)c(OC)c(OC)c2)cc1O
-37.5% (active)
Nc1nc2ccccc2c2c1S(=O)(=O)c1ccc(Cl)cc1C2=O
20.5% (inactive)
COC(=O)c1c(C)c2n(c1C)C(=O)C(c1ccccc1)=C2
78.1% (inactive)
